Parameter: Relative Migration (%), HUVEC migration assay, 90 ng/ml. Scope: all listed entries.
# SYSTEM: c-Met protein receptors on HUVEC (human, UniProt P08581 25-1390)
# Sequence (P08581 25-1390): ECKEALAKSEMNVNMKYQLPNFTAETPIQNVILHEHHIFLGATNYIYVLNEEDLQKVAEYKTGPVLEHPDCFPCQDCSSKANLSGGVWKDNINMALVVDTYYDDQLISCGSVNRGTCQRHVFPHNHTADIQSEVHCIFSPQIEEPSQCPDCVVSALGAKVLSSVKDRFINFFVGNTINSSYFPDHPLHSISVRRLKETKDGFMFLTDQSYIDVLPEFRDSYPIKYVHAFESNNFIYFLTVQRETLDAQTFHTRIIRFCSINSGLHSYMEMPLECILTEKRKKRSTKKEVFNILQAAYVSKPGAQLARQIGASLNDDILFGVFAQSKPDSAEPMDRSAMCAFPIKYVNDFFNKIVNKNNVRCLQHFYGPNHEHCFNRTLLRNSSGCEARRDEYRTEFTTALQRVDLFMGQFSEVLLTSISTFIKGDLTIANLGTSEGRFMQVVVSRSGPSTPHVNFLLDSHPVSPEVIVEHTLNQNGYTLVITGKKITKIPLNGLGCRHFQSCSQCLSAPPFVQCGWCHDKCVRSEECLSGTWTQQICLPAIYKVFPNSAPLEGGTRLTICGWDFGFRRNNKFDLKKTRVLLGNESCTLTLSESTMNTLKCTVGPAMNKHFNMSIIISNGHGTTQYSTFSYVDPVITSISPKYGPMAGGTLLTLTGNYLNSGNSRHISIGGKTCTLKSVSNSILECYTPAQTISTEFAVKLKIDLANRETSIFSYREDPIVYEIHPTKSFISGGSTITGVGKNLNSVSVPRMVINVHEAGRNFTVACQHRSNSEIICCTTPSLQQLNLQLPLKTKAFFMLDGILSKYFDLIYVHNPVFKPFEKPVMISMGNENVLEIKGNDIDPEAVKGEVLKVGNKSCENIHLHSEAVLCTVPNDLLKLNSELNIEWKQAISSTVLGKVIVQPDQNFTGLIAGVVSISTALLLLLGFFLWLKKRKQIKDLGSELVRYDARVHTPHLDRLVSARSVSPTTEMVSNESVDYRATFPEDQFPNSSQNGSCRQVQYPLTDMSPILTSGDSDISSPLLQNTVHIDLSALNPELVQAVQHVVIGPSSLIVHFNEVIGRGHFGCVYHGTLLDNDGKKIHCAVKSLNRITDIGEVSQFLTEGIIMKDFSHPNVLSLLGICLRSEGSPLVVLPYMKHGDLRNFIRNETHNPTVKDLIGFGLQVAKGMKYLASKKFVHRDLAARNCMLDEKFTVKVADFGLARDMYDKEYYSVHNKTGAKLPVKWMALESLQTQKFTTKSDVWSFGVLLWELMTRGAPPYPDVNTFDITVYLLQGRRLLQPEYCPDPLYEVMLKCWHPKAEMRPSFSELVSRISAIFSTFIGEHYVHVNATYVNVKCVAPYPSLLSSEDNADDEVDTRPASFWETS
# EXPERIMENT SUMMARY: cell-based or functional assay
Give the number; % is assumed, so skip it.

BINDER: VH5/Vk0 (antibody, IgG1, V domains shown, Full IgG1/kappa expressed in HEK 293 EBNA cells) VH: QVQLVQSGAEVKKPGSSVKVSCQGSGYSFPTHWITWVRQAPGQGLEWMGTIDPTDSYNFYGPSFQGRVTITADSSTSTAYMELSSLRSEDTAVYYCARDGNYYDSRGYYYDTFDMWGQGTLVTVSS VL: DIQMTQSPSFLSASVGDRVTITCRASQGISTYLAWYQQKPGTAPKLLIYSASTLESGVPSRFSGSGSGTDFTLTISSLQPEDSATYYCQQADSFPLTFGGGTKVEIK
READING UNIT: %
READOUT VALUE: 128
--
BINDER: VH0/Vk2 (antibody, IgG1, V domains shown, Full IgG1/kappa expressed in HEK 293 EBNA cells) VH: QVQLVQSGAEVKKPGESLRISCQGSGYSFPTHWITWVRQMPGKGLEWMGTIDPTDSYNFYGPSFQGHVTISADSSSSTAYLQWSSLKASDTAMYYCARDGNYYDSRGYYYDTFDMWGQGTLVTVSS VL: DIQMTQSPSSLSASVGDRVTITCRASQGISTYLAWYQQKPGKAPKLLIYSASTLESGVPSRFSGSGSGTDFTLTISSLQPEDFATYYCQQADSFPLTFGGGTKVEIK
READING UNIT: %
READOUT VALUE: 163

Lookup: Give the reported value of Relative Migration (%), HUVEC migration assay, 90 ng/ml for this record: VH4/Vk5 (antibody, IgG1, V domains shown, Full IgG1/kappa expressed in HEK 293 EBNA cells) VH: QVQLVQSGAEVKKPGSSVKVSCQGSGYSFPTHWITWVRQAPGQGLEWMGTIDPTDSYNFYGPSFQGRVTITADSSTSTAYMELSSLRSEDTAMYYCARDGNYYDSRGYYYDTFDMWGQGTLVTVSS VL: EIVLTQSPGTLSLSPGERATLSCRASQGISTYLAWYQQKPGQAPRLLIYSASTLESGIPDRFSGSGSGTDFTLTISRLEPEDFATYYCQQADSFPLTFGGGTKVEIK
Found: 171

Values compiled from patent US20210403576A1.
